molecular target: human PDE10A2 (Homo sapiens (Human))
Sequence (Q9Y233 267-1055): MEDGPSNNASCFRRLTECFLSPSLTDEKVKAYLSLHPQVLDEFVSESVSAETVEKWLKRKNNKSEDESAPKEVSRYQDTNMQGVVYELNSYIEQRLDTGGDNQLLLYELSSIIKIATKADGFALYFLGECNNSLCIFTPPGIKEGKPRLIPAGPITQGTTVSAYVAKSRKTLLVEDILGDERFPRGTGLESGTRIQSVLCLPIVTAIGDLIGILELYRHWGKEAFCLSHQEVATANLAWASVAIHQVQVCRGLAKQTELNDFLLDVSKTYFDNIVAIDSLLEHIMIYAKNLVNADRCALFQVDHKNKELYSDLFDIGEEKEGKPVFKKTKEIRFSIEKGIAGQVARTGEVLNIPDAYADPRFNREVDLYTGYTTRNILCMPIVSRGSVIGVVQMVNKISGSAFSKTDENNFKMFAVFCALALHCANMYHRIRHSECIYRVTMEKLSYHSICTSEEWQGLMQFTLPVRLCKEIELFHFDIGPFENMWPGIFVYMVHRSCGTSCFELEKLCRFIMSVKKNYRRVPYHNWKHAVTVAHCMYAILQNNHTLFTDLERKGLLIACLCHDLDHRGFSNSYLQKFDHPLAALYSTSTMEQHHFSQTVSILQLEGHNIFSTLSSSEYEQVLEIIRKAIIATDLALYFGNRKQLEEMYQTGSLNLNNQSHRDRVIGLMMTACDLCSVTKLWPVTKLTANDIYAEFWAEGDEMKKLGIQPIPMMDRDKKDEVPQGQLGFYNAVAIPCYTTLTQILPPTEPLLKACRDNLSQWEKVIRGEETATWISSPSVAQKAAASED
Parameter: Ki (nM)

[A] Cc1ncc(C2CCC3(CC2)OCCO3)c(OC[C@@H](C)Cc2ccc3ccccc3n2)n1 [Example 204]
[B] Cc1ccc([C@H]2C[C@@H]2COc2nc(C)ncc2-c2cc(F)cc(F)c2)nc1 [Example 7]
[C] CCc1ccccc1-c1cnc(C)nc1OC[C@H]1C[C@@H]1c1ccc(C)cn1 [Example 8]
## Task Lab note: rank above entries, Ki ascending. Return the labels ranked in the requested order, please.
## Result B, A, C
(B: 0.46 nM, A: 0.73 nM, C: 3.24 nM)

* * *

target: human PDE10A2 (Homo sapiens (Human))
Parameter: Ki (nM)

Worked examples follow.
Cc1ccc([C@H]2C[C@@H]2COc2nc(C)ncc2-c2ccc(C(F)(F)F)cc2)nc1 :: 5.71
Cc1ccc([C@H]2C[C@@H]2COc2nc(C)ncc2-c2ccc(C)cc2C)nc1 :: 2.44

[1] Cc1ncc(-c2cnc3[nH]ncc3c2)c(OC[C@H]2C[C@@H]2c2ccc3ccccc3n2)n1 (single isomer, unassigned)
[2] Cc1ncc(-c2ccc(C(F)(F)F)nc2)c(OC[C@H]2C[C@@H]2c2ccccn2)n1
[3] Cc1ncc(-c2ccncc2)c(OC[C@H]2C[C@@H]2c2ccc3ccccc3n2)n1 (single isomer, unassigned) [Example 26]
[4] Cc1ccc([C@H]2C[C@@H]2COc2nc(C)ncc2C2CCC3(CC2)OCCO3)nc1
[5] Cc1ncc([C@H]2CC[C@@H](O)CC2)c(OC[C@H]2C[C@H]2c2ccc3ccccc3n2)n1
## Task Ascending by Ki, please. Please express your ranking as an ordered list of the labels.
## Result 3, 5, 1, 4, 2
(3: 0.02 nM, 5: 0.07 nM, 1: 1.78 nM, 4: 2.81 nM, 2: 23.5 nM)
